Values from the Kinase Knowledgebase extract (Sharma et al. 2016)

Below is a list of entries, each paired with its recorded IC50 value.
# system name: PIK3CD (Human) (UniProt O00329)
# Sequence (O00329 whole entry, looked up): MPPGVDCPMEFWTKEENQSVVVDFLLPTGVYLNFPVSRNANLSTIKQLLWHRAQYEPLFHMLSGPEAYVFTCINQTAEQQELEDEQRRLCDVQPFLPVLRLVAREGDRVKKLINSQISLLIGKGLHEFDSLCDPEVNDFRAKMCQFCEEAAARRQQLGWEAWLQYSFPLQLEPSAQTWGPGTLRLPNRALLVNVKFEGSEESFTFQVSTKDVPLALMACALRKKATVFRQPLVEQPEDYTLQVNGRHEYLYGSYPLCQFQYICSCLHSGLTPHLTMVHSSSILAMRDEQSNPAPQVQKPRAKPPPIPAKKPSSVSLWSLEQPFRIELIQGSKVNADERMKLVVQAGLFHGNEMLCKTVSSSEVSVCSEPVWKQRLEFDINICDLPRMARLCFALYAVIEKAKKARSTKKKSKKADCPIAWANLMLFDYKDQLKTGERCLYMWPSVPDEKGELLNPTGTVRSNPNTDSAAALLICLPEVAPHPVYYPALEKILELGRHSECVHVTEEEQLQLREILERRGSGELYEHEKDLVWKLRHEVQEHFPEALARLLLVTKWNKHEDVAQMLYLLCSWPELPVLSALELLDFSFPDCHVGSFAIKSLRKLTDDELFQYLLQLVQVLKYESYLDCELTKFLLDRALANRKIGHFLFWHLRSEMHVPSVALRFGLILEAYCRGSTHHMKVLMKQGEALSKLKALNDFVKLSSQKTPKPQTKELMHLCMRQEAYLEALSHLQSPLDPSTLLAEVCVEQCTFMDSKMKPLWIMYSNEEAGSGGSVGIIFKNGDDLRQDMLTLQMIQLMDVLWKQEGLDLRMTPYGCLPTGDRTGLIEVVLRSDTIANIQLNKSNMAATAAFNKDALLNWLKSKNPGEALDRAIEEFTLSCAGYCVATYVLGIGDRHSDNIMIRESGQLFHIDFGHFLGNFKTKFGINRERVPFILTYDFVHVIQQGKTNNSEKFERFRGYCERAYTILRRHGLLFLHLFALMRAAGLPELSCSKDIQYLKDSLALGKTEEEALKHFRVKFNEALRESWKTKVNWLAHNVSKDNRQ
# assay notes: Cell-Based Assay
# assay setup: raji

Q) GET IC50 | system: PIK3CD (Human) (UniProt O00329) | item: Cc1cccc2cc([C@H](C)NC(=O)c3c(N)nn4cccnc34)n(-c3ccccc3)c(=O)c12
A) < 0.1 µM

Next, consider the following compound.
Q) GET IC50 | system: PIK3CD (Human) (UniProt O00329) | item: COc1ccc(-c2cccc3cc([C@H](C)NC(=O)c4c(N)nn5cccnc45)n(-c4ccccc4)c(=O)c23)cn1
A) < 0.1 µM

----------
Reported IC50, PIK3CG (human) (UniProt P48736).

Worked cases, IC50 given:
Q) Report IC50 for C=CC(=O)NCC#Cc1cccc2cc([C@H](C)NC(=O)c3c(N)nn4cccnc34)n(-c3ccccc3)c(=O)c12
A) < 100 nM

Q) Report IC50 for C[C@H](NC(=O)c1c(N)nn2cccnc12)c1c(C#N)c2cccc(F)c2c(=O)n1-c1ccccc1
A) 100 to 1000 nM

Q) Report IC50 for C[C@H](NC(=O)c1c(N)nn2c1NCCC2)c1cc2cccc(Cl)c2c(=O)n1-c1ccccc1
A) ≥ 10000 nM

Q) Report IC50 for C[C@H](NC(=O)c1c(N)nn2cccnc12)c1c(Br)c2cccc(F)c2c(=O)n1-c1ccccc1
A) 100 to 1000 nM

Q) Report IC50 for C#Cc1cccc2cc([C@H](C)NC(=O)c3c(N)nn4cccnc34)n(-c3ccccc3)c(=O)c12
A) < 100 nM

Q) Report IC50 for C[C@H](NC(=O)c1c(N)nn2cccnc12)c1nc2cccc(Cl)c2c(=O)n1-c1ccccc1
A) < 100 nM

Q) Report IC50 for C=CC(=O)NCCC#Cc1cccc2cc([C@H](C)NC(=O)c3c(N)nn4cccnc34)n(-c3ccccc3)c(=O)c12
A) 100 to 1000 nM

Q) Report IC50 for CC(C)c1ccnc2c(C(=O)N[C@@H](C)c3cc4cccc(Cl)c4c(=O)n3-c3ccccc3)c(N)nn12
A) ≥ 10000 nM

Others:
Q) Report IC50 for C[C@H](NC(=O)c1c(N)nn2cccnc12)c1cc2cccc(-c3ccccc3)c2c(=O)n1-c1ccccc1
A) 100 to 1000 nM

Q) Report IC50 for CC(C)Oc1ccc(-c2cnc(N)c(C(=O)N[C@@H](C)c3cc4cccc(Cl)c4c(=O)n3-c3ccccc3)n2)cc1F
A) 100 to 1000 nM

Q) Report IC50 for C[C@H](NC(=O)c1cnn2cccnc12)c1cc2cccc(C#CCNC(=O)[C@@H]3CCCO3)c2c(=O)n1-c1ccccc1
A) < 100 nM

----------
Below is a list of entries, each paired with its recorded IC50 value.
# system name: PIK3CD (Human) (UniProt O00329)
# assay notes: Cell-Based Assay
# assay setup: raji

Q) Report IC50 for C[C@H](NC(=O)c1nc(-c2cccc(S(C)(=O)=O)c2)cnc1N)c1cc2cccc(Cl)c2c(=O)n1-c1ccccc1
A) 0.1 to 1 µM

Q) Report IC50 for C[C@H](NC(=O)c1c(N)nn2cccnc12)c1cc2scc(Cl)c2c(=O)n1-c1ccccc1
A) < 0.1 µM

Q) Report IC50 for C[C@H](NC(=O)c1cnn2cccnc12)c1cc2cccc(Cl)c2c(=O)n1-c1ccccc1
A) 0.1 to 1 µM

Q) Report IC50 for COc1cc(-c2cccc3cc([C@H](C)NC(=O)c4ncc(C)nc4N)n(-c4ccccc4)c(=O)c23)ccn1
A) 0.1 to 1 µM

Q) Report IC50 for C[C@H](NC(=O)c1c(N)nn2cccnc12)c1cc2cccc(C#CCNC(=O)[C@H]3CCC(=O)O3)c2c(=O)n1-c1ccccc1
A) < 0.1 µM

Q) Report IC50 for C[C@H](NC(=O)c1c(N)nn2cccnc12)c1cc2cccc(Cl)c2c(=O)n1CCN(C)S(C)(=O)=O
A) < 0.1 µM

Q) Report IC50 for C[C@H](NC(=O)c1nc(C#N)cnc1N)c1cc2cccc(Cl)c2c(=O)n1-c1ccccc1
A) < 0.1 µM

Q) Report IC50 for C[C@H](NC(=O)c1cnc2cccnn12)c1cc2cccc(Cl)c2c(=O)n1-c1ccc(F)cc1
A) < 0.1 µM

Q) Report IC50 for CNS(=O)(=O)c1cccc(-c2cnc(N)c(C(=O)N[C@@H](C)c3cc4cccc(Cl)c4c(=O)n3-c3ccccc3)n2)c1
A) < 0.1 µM

Q) Report IC50 for C[C@H](NC(=O)c1c(N)nn2cccnc12)c1cc2cccc(-c3cnn(C)c3)c2c(=O)n1-c1ccccc1
A) < 0.1 µM

----------
# system name: PIK3CD (Human)
# assay notes: Cell-Based Assay
# assay setup: raji
readout type: IC50

Q) Report IC50 for C[C@H](NC(=O)c1nc(-c2cncc(NS(C)(=O)=O)c2)cnc1N)c1cc2cccc(Cl)c2c(=O)n1-c1ccccc1
A) 100 to 1000 nM

Others:
Q) Report IC50 for C[C@H](NC(=O)c1c(N)nn2cccnc12)c1cc2cccc(C#CCN)c2c(=O)n1-c1ccccc1
A) 100 to 1000 nM

Q) Report IC50 for COc1ncc(-c2cccc3cc([C@H](C)NC(=O)c4c(N)nn5cccnc45)n(-c4ccccc4)c(=O)c23)cn1
A) < 100 nM

Q) Report IC50 for Cc1c([C@H](C)NC(=O)c2c(N)nn3cccnc23)n(-c2ccccc2)c(=O)c2c(F)cccc12
A) < 100 nM

Q) Report IC50 for C[C@H](NC(=O)c1nc(-c2cscn2)cnc1N)c1cc2cccc(Cl)c2c(=O)n1-c1ccccc1
A) 100 to 1000 nM

----------
Below is a list of entries, each paired with its recorded IC50 value.
# system name: PIK3CD (Human) (UniProt O00329)
# assay notes: Enzyme Assay

Worked cases, IC50 given:
Q) Report IC50 for C[C@H](NC(=O)c1nc(-c2ccc(NS(C)(=O)=O)cc2)cnc1N)c1cc2cccc(Cl)c2c(=O)n1-c1ccccc1
A) ≥ 10000 nM

Q) Report IC50 for C[C@H](NC(=O)c1c(N)nn2ccc(-c3cccc(S(C)(=O)=O)c3)nc12)c1cc2cccc(Cl)c2c(=O)n1-c1ccccc1
A) < 100 nM

Q) Report IC50 for C[C@H](NC(=O)c1c(N)ncc2cccnc12)c1cc2cccc(Cl)c2c(=O)n1-c1ccccc1
A) 100 to 1000 nM

Q) Report IC50 for C[C@H](NC(=O)c1c(N)nn2cccnc12)c1cc2scc(-c3cnn(C)c3)c2c(=O)n1-c1ccccc1
A) ≥ 10000 nM

Q) Report IC50 for C#Cc1cccc2cc([C@H](C)NC(=O)c3c(N)nn4cccnc34)n(-c3ccccc3)c(=O)c12
A) 100 to 1000 nM

Others:
Q) Report IC50 for C[C@H](NC(=O)c1c(N)nn2cccnc12)c1nn2ccc(-c3cnn(C)c3)c2c(=O)n1-c1ccccc1
A) ≥ 10000 nM

Q) Report IC50 for C[C@H](NC(=O)c1nccnc1N)c1cc2cccc(Cl)c2c(=O)n1-c1ccc(F)cc1
A) 100 to 1000 nM

Q) Report IC50 for C[C@H](NC(=O)c1c(N)nn2cccnc12)c1c(C#N)c2cccc(F)c2c(=O)n1-c1ccccc1
A) 100 to 1000 nM

----------
Reported IC50, PIK3CG (human) (UniProt P48736).

Q) Report IC50 for CNCc1cccc2cc([C@H](C)NC(=O)c3c(N)nn4cccnc34)n(-c3ccccc3)c(=O)c12
A) ≥ 10000 nM

Q) Report IC50 for C[C@H](NC(=O)c1c(N)nn2cccnc12)c1cc2cccc(-c3cncc(NS(C)(=O)=O)c3)c2c(=O)n1-c1ccccc1
A) 100 to 1000 nM

Q) Report IC50 for Cc1c([C@H](C)NC(=O)c2c(N)nn3cccnc23)n(-c2ccccc2)c(=O)c2c(F)cccc12
A) < 100 nM

Next, consider the following compound.
Q) Report IC50 for C[C@H](NC(=O)c1c(N)ncc2cccnc12)c1cc2cccc(Cl)c2c(=O)n1-c1ccccc1
A) 100 to 1000 nM

----------
# system name: PIK3CD (Human) (UniProt O00329)
# assay notes: Enzyme Assay
Below is a list of entries, each paired with its recorded IC50 value.

Worked cases, IC50 given:
Q) Report IC50 for COc1cc(-c2cccc3cc([C@H](C)NC(=O)c4c(N)ncc5cccnc45)n(-c4ccccc4)c(=O)c23)ccn1
A) 100 to 1000 nM

Q) Report IC50 for C[C@H](NC(=O)c1c(N)nn2cccnc12)c1cc2cccc(NCC(F)(F)F)c2c(=O)n1-c1ccccc1
A) ≥ 10000 nM

Others:
Q) Report IC50 for COc1cc(-c2csc3cc([C@H](C)NC(=O)c4c(N)nn5cccnc45)n(-c4ccccc4)c(=O)c23)ccn1
A) ≥ 10000 nM

Q) Report IC50 for C[C@H](NC(=O)c1c(N)nn2cccnc12)c1cc2cccc(/C=C/c3ccccc3)c2c(=O)n1-c1ccccc1
A) ≥ 10000 nM

Q) Report IC50 for COc1cc(-c2cccc3cc(C(C)NC(=O)c4c(N)nn5cccnc45)c(-c4ccccc4)nc23)ccn1 (configuration not stated)
A) ≥ 10000 nM

Q) Report IC50 for Nc1nn2cccnc2c1C(=O)N1CCC[C@H]1c1cc2cccc(Cl)c2c(=O)n1-c1ccccc1
A) ≥ 10000 nM

Q) Report IC50 for C[C@H](NC(=O)c1c(N)nn2cccnc12)c1cc2cccc(-c3cccnc3)c2c(=O)n1-c1ccccc1
A) 100 to 1000 nM
